- measurement_protocol: osmotic lysis modulators in infected erythrocytes, primary screen, PSAC antagonist project, cell-based, P. falciparum Indochina, OD700, 3 h (AID 1156)
- assay_conditions: higher = more signal, called active from +8 up or from −8 down
Returns one of true (1) or false (0); true (1) when z-score is >= 0.7.

COc1cc(OC)c(C(O)C2C=CC3C(=O)N(C)C(=O)C3N2NC(=O)OC(C)(C)C)cc1Br (stereo not given); false (0)

Query block: I'd appreciate it if you could say whether C=CCC(OC(C)=O)[C@@H]1[C@@H](N(Cc2ccc(-c3ccccc3)cc2)C(=O)Cc2ccc(F)cc2)c2cc(OCCCO)ccc2N1C(=O)Cc1ccc(OC)cc1 (stereo not given in full) has z-score at least equal to 0.7.
Result block: false (0)

Query block: Ok, now Cc1ccc(S[C@]2(C(=O)NCCCN(C)C)CC(=O)N(C3CCCCC3)[C@@H]2c2ccc(CO)cc2)cc1
Result block: true (1)

Query block: Ok, now C=CCC(OC(C)=O)[C@@H]1[C@@H](N(Cc2cc3ccccc3o2)C(=O)c2ccc(-c3ccccc3)cc2)c2cc(OCCCO)ccc2N1C(=O)c1ccc2ccccc2c1 (stereo not given in full)
Result block: false (0)

Query block: Ok, now O=C(NCc1ccccc1)[C@@H]1c2ccccc2C(=O)N(Cc2ccccc2C(F)(F)F)[C@H]1c1ccc(CO)cc1
Result block: true (1)

Query block: Ok, now [N-]=[N+]=NCc1ccccc1C[C@]1(C(N)=O)N=C(c2ccc(OCCCO)cc2)O[C@H]1c1ccccc1
Result block: false (0)

Query block: Ok, now COC(=O)[C@@]1(Cc2ccccc2)[C@H]2c3cc(C(=O)N(C)C)n(CCN4CNCC4=O)c3C[C@H]2CN1C(=O)c1ccccc1
Result block: false (0)

Query block: Ok, now C=C(/C(=C/C[C@H](OC(C)=O)c1cccc(OCCO)c1)c1cnc2ccccc2c1)C(C)C
Result block: true (1)

Query block: Ok, now COC(=O)[C@@]1(Cc2ccccc2)[C@@H]2C(=CC(=O)[C@H]2CC(=O)C(=O)N(C)C)CN1C(=O)c1ccccc1
Result block: true (1)

Query block: Ok, now O[C@@H](Cc1ccccc1)[C@@H](/C=C/C1CC1)N(CC#Cc1ccccc1)Cc1cccc(Cl)c1
Result block: false (0)

Query block: Ok, now O=C(CS)NCCCCCCNC(=O)[C@H]1C[C@H]2C(=O)N[C@@H](Cc3ccccc3)C(=O)N2[C@H]1c1ccc(O)cc1
Result block: false (0)

Query block: Ok, now CCOC(=O)c1ccc(NC(=O)O[C@H]2[C@H](OC(=O)Nc3ccc4c(c3)OCO4)[C@H](OC(=O)Nc3ccc4c(c3)OCO4)[C@@H](OC)O[C@@H]2CO)cc1
Result block: true (1)

Query block: Ok, now CCCC[C@@H]1C[C@H]1[C@@H](NC(=O)c1cccs1)c1ccc(C(F)(F)F)cc1
Result block: false (0)

Query block: Ok, now CCCCN1CC=CC23O[C@@H]4/C=C\CCC(C)OC(=O)C4[C@H]2C(=O)N(C(CO)C(C)C)[C@@H]3C1=O (stereo not given in full)
Result block: true (1)

Query block: Ok, now O=C1C=C(c2ccccc2)C(=O)c2ccc([C@H]3Oc4ccccc4S(=O)(=O)N4CCC[C@@H]34)cc21
Result block: false (0)

====

- measurement_protocol: binders of probe aFST on microarray, primary screen, stem cell growth factor project, biochemical, small-molecule microarray, fluorescence 635/667 (AID 1086);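 also: score merges 667 nm fluorescence with signal-to-noise of each printed compound spot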
- assay_conditions: higher = more signal
endpoint_label: composite z-score
Write the value as a bare number.

Observe how each entry below is paired with its result.
COCCOC(=O)N1C(=O)[C@@]2(c3cc(C#CC4=CCCCC4)ccc31)[C@H](c1ccccc1OCCO)N1[C@H](c3ccccc3)[C@H](c3ccccc3)OC(=O)[C@H]1[C@@H]2C(=O)Nc1nc2ccccc2s1; 0.513
NC(=O)NCC#Cc1ccc2c(c1)[C@]1(C(=O)N2)[C@H](C(=O)O)[C@H]2C(=O)O[C@H](c3ccccc3)[C@H](c3ccccc3)N2[C@@H]1c1ccc(OCCO)cc1; 0.718
COCCOC(=O)N1C(=O)[C@@]2(c3cc(C#CC4=CCCCC4)ccc31)[C@H](c1ccc(OCCO)cc1)N1[C@H](c3ccccc3)[C@H](c3ccccc3)OC(=O)[C@H]1[C@@H]2C(=O)NC[C@H](O)c1ccccc1; 1.44
CCOC(=O)c1ccc(NC(=O)O[C@H]2[C@H](OC(=O)Nc3ccc4c(c3)OCO4)[C@@H](OC(=O)Nc3ccc4c(c3)OCO4)[C@@H](OC)O[C@@H]2CO)cc1; 0.474
COc1ccc(CCN2C(=O)[C@@]3(Cc4ccccc42)c2ccccc2C(=O)N(Cc2ccccc2OC)[C@H]3c2ccc(CO)cc2)cc1; -0.275
CC(C)[Si](C#CCCCC#N)(O[C@H](c1ccccc1)c1cn([C@H](CO)Cc2ccccc2)nn1)C(C)C; -0.337
COC(=O)[C@@]1(Cc2ccc(OC)cc2)[C@H]2c3cc(C(=O)N4CCCC4)n(Cc4cccc5ccccc45)c3C[C@H]2CN1C(=O)c1ccccc1; 0.849
C=C(C)C1CCC(C(O)C2C=CC3C(=O)N(C)C(=O)C3N2N2CCCCC2)CC1 (stereo not drawn); 1.23
O=C(CS)NCCCCCCNC(=O)[C@H]1C[C@H]2C(=O)N[C@@H](Cc3ccccc3)C(=O)N2[C@H]1c1ccc(O)cc1; -0.571
CC(=O)NCCCC[C@@H]1NC(=O)[C@@H]2C[C@H](C(=O)NCCCC[N+](C)(C)C)[C@H](c3ccc(O)cc3)N2C1=O; 0.177

Query block: Need composite z-score of O=C1O[C@@H](c2ccccc2)[C@@H](c2ccccc2)N2[C@@H](c3ccc(O)cc3)[C@]3(C(=O)Nc4ccc(C#CC5=CCCCC5)cc43)[C@@H](C(=O)NC[C@H](O)c3ccccc3)[C@H]12 , thanks.
Result block: 0.398

Query block: Ok, now CN(C)C(=O)[C@@]1(CCS(=O)(=O)c2ccccc2)N=C(c2ccc(OCCCO)cc2)O[C@H]1c1ccccc1
Result block: 1.52

Query block: Ok, now COC(=O)[C@@]1(Cc2ccc(OC)cc2)[C@H]2c3cc(C(=O)N4CCCC4)n(Cc4c(-c5ccccc5)noc4C)c3C[C@H]2CN1C(=O)c1ccccc1
Result block: 1.73

====

- Test system: Plasmodium falciparum Sir2 (PF13_0152, Sir2A)
- measurement_protocol: pfSir2 binders on small-molecule microarrays, primary screen, biochemical, small-molecule microarray, 635 nm fluorescence (AID 1098);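 also: score merges spot fluorescence intensity with its signal-to-noise ratio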
- assay_conditions: small-molecule microarray binding, fluorescence 635 nm; higher = more signal
Returns one of yes or no; yes when composite z-score is >= 1.

Example cases with answers are listed next.
C=C(/C(=C/C[C@H](OC(C)=O)c1ccccc1OCCO)c1cc(C(=O)OC)ccc1OC)C(C)C; yes
O=C1C2C=CC(C(O)c3ccc(Br)cc3)N(Nc3ccccc3F)C2C(=O)N1c1ccccc1 (stereo not drawn); no
O=C1NC(=O)C2C1C=CC(C(O)c1cccc3ccccc13)N2Nc1ccc(Cl)cc1Cl (stereo not drawn); no

Query block: I'd appreciate it if you could say whether CN(C)C(=O)C1N=C(c2ccc(OCCCO)cc2)N(c2ccccc2)O1 (stereo not drawn) has composite z-score at least equal to 1.
Result block: yes

Query block: Ok, now CCC[C@@H]1C[C@@]1(CCC)[C@@H](NC(=O)OCc1ccccc1)c1ccc(-c2ccccc2)cc1
Result block: no

Query block: Ok, now O=C1N(Cc2ccccc2)c2ccccc2[C@@H]2OC(c3ccc(OCCCO)cc3)=N[C@]12Cc1ccccc1
Result block: no

Query block: Ok, now COc1ccc([Si](C)(C)[C@H]2[C@H](CCO)O[C@@]3(C(=O)N(Cc4cccc(N5C(=O)COc6ccccc65)c4)c4ccccc43)[C@@H]2C)cc1
Result block: no

Query block: Ok, now OCCCC1=CC(c2ccc(CN3CCCC3)cc2)N(Cc2sc3ccccc3c2Cl)CC1 (stereo not drawn)
Result block: yes

====

- measurement_protocol: osmotic lysis modulators in infected erythrocytes, primary screen, PSAC antagonist project, cell-based, P. falciparum Indochina, OD700, 3 h (AID 1156)
- assay_conditions: higher = more signal, called active from +8 up or from −8 down
Quick reference for z-score among some compounds
Write the value as a bare number.

C=CCOC(=O)[C@H]1[C@@H]2C(=O)O[C@@H](c3ccccc3)[C@@H](c3ccccc3)N2[C@@H](c2ccc(OCCOC(=O)[C@@H]3C[C@@H]4C(=O)N[C@@H](CCCCN(C)C)C(=O)N4[C@@H]3c3ccc(O)cc3)cc2)[C@]12C(=O)Nc1ccccc12; 3.35
COC(=O)[C@@]1(Cc2ccc(OC)cc2)[C@H]2c3cc(C(=O)N4CCCC4)n(Cc4cccc5ccccc45)c3C[C@H]2CN1C(=O)c1ccccc1; 1.48

From here, focus on the item given below.
Query block: Need z-score of COC(=O)[C@H](Cc1ccccc1)N1CC(/C=C/C2CC2)=C[C@H]1[C@H](O)Cc1ccccc1 , thanks.
Result block: -0.377
